molecular target: Recombinant human soluble BACE1 catalytic domain (Homo sapiens (Human)); assay: BACE1 HTRF FRET Assay; conditions: Ki calculated from IC50 using the Cheng-Prusoff equation; QSY7-APPswe-Eu substrate, pH 5.0; read-out: BACE-1 Ki
Sequence (P56817 75-416): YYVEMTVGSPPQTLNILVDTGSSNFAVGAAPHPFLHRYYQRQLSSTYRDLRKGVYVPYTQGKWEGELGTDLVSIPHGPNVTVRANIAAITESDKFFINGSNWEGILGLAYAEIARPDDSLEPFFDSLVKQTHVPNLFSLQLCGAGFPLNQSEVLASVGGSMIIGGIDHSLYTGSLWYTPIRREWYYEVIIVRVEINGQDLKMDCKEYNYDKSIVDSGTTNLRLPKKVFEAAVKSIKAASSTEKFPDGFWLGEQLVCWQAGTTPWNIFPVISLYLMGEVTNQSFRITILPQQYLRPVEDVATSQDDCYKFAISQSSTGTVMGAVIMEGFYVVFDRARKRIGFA
RECORDED_ENDPOINT: Ki

- COMPOUND: "COc1cc([C@]23CO[C@@H](C)C[C@H]2C(=O)N(C)C(=N)N3)c(F)cn1"
  RECORDED_ENDPOINT: "Ki"
  DATA_VALUE: "468 nM"
- COMPOUND: "COC1CC(COc2ccc(F)c([C@]34CO[C@@H](C5CC5)C[C@H]3C(=O)N(C)C(=N)N4)c2)C1 (stereo partly drawn)"
  RECORDED_ENDPOINT: "Ki"
  DATA_VALUE: "180 nM"
- COMPOUND: "COC[C@H]1C[C@H]2C(=O)N(C)C(=N)N[C@@]2(c2cc(Oc3ncccc3F)ccc2F)CO1"
  RECORDED_ENDPOINT: "Ki"
  DATA_VALUE: "4 nM"
- COMPOUND: "COc1ccnc(Oc2ccc(F)c([C@]34CO[C@@H](C)C[C@H]3C(=O)N(C)C(=N)N4)c2)c1"
  RECORDED_ENDPOINT: "Ki"
  DATA_VALUE: "39.9 nM"
- COMPOUND: "CN1C(=N)N[C@@]2(c3cc(OCC4CC4)ccc3F)CO[C@@H](C3CC3)C[C@H]2C1=O"
  RECORDED_ENDPOINT: "Ki"
  DATA_VALUE: "11 nM"
- COMPOUND: "C[C@H]1C[C@H]2C(=O)N(C)C(=N)N[C@@]2(c2cc(Oc3ccccn3)ccc2F)CO1"
  RECORDED_ENDPOINT: "Ki"
  DATA_VALUE: "31.7 nM"
- COMPOUND: "CN1C(=N)N[C@@]2(c3cc(OCC(F)F)ccc3F)CO[C@@H](C3CC3)C[C@H]2C1=O"
  RECORDED_ENDPOINT: "Ki"
  DATA_VALUE: "40 nM"
- COMPOUND: "CN1C(=N)N[C@@]2(c3cc(OCC4CCC4)ccc3F)CO[C@@H](C3CC3)C[C@H]2C1=O"
  RECORDED_ENDPOINT: "Ki"
  DATA_VALUE: "30 nM"
- COMPOUND: "Cc1nccc(Oc2ccc(F)c([C@]34CO[C@@H](C5CC5)C[C@H]3C(=O)N(C)C(=N)N4)c2)n1"
  RECORDED_ENDPOINT: "Ki"
  DATA_VALUE: "57 nM"
- COMPOUND: "CN1C(=N)N[C@@]2(c3cc(Oc4ncccn4)ccc3F)CO[C@@H](C3CC3)C[C@H]2C1=O"
  RECORDED_ENDPOINT: "Ki"
  DATA_VALUE: "52 nM"
- COMPOUND: "COC[C@H]1C[C@H]2C(=O)N(C)C(=N)N[C@@]2(c2cc(Br)ccc2F)CO1"
  RECORDED_ENDPOINT: "Ki"
  DATA_VALUE: "910 nM"
- COMPOUND: "C[C@H]1C[C@H]2C(=O)N(C)C(=N)N[C@@]2(c2cc(Oc3ncncc3F)ccc2F)CO1"
  RECORDED_ENDPOINT: "Ki"
  DATA_VALUE: "11 nM"
- COMPOUND: "C=CCCn1cc(F)c([C@]23CO[C@@H](C)C[C@H]2C(=O)N(C)C(=N)N3)cc1=O"
  RECORDED_ENDPOINT: "Ki"
  DATA_VALUE: "8400 nM"
- COMPOUND: "C[C@H]1C[C@H]2C(=O)N(C)C(=N)N[C@@]2(c2cc(Oc3ncccc3F)ccc2F)CO1"
  RECORDED_ENDPOINT: "Ki"
  DATA_VALUE: "7 nM"
- COMPOUND: "CN1C(=N)N[C@@]2(c3cc(Oc4ncncc4F)ccc3F)CO[C@@H](C3CC3)CC2C1=O (stereo partly drawn)"
  RECORDED_ENDPOINT: "Ki"
  DATA_VALUE: "13 nM"
